# Experimental Protocol: yeast display, Sf9 membrane polyspecificity reagent, FACS + sequencing; frameworks hold sequencing errors
Property Label: polyreactivity (PSR sort gate)

QVQLVESGGGLFQAGGSLRLSCAASGFTFWYYAMGWYRQAPGKERELVAAISASGGSTYYADSVKVRFTISRDNAKNTVYLQMNCLKPEDTAVYYCAARYPSKFYNTYDRDYWGQGTQVTVSS high polyreactivity
QVQLQESGGGLVQAGGSLRLSCAASGNISVTGFMGWYRQAPGKERELVASIGIGGTTYYADSVKGRFSISRDNAKNTVYVQMNSLKPEDTAVYYCAARYLYYAYSYWGQGTQVTVRS low polyreactivity
QVQLVESGGGLVQAGGSLRLSCAASGRNFYYYAMGWYRQAPGKERELVATITGSGGNTYYADSVKGRFTISRDNAKNTVYLQMNSLKPEDTAVYFCNARLARGYWTPGKERPMEYWGQGTQVTVSS low polyreactivity
QVQLVESGGGLVQAGGSLRLSCAASGSTLVKYAMGWYRQAPGKERELVARITLNGGRTYYADSVKGRFTISRDNAKNTVYLQMNSLKPEDTAVYYCAKSLPHSTSRDYWGQGTQVTVSS low polyreactivity
QVQLVESGGGLVQAGGSLRLSCAASGFTFRYNAMGWYRQAPGKERELVAAISSRGGSTYYADSVKGRFTISRDNAKNTVYLQMNSLKPEDTAVYYCALYGGLGDRFRPRYYWGQGTQVTVSS high polyreactivity
QVQLVESGGGLVQAGGSLRLSCAASGRIFSAYAMGWYRQAPGKEREFVAAISARGGSTNYADSVKGRFTISRDNAKNTVYLQMNSLNPEDTAVYYCNDRYVQWYWIAKVIHIDNDYWGQGTQVTVSS low polyreactivity

# sequence QVQLVESGVGLVQAGGSVRLSCAASGFTFGYYAMGWYRQAPGKERELVASISSVDNTYYADSVKGRFTISRDNAKNTVYLQMNSLKPEDTAVYYCAARYRDYFVRGGYWGQGTQVTVSS ; its polyreactivity (PSR sort gate) = high polyreactivity

# sequence QVQLVESGGGLVQAGGSLRLSCAASGRTFRPYALGGYRPAPGKERELVAVITSGGSTYYADSVKGRFTISRDNAKNTVYLQMNSLKPEDTAVYYCARVYRSYAWSGYDYWGQGTQVTVSS ; its polyreactivity (PSR sort gate) = high polyreactivity

====

# Experimental Protocol: yeast display, Sf9 membrane polyspecificity reagent, FACS + sequencing; frameworks hold sequencing errors
Property Label: polyreactivity (PSR sort gate)

Use the examples below as a reference point.
QVQLVESGGGLVQAGGSLRLSCAASGRIFHLYAMGWYRQAPGKERELVATITYDGGSTYYADSVKGRFTISRDNAKDTVYLQMNSLKPEDTAVYYCASPSPHVGLKWEYDYWGQGTQVTVSS low polyreactivity
QVQLVESGGGLVQAGGSLRLSCAASGSTIYFNAMGWYRQAPGKERELVAAIDWSGGSTYYADSVKGRFTISRDNAKNTFYLHMNSLKPEDTAVYYCAAAYHYYGNTVGYADYDYWGQGNQVTVSS low polyreactivity
QVQLVESGGGLVQAGGSLRLSCAASGRTFVDYDMGWYRQAPGKERELVADINSGGSTYYADSVKGRFTISRDNAKNTVYLQMNRLKPEDTAVYYCAADDGWGYISSYDYEYWGQGTQVTVSS high polyreactivity
QVQLVESGGGLVQAGGSLRLSCAASGRTFSKYTMGWYRQAPGKERELVAVISRSGTRTYYADSVKGRFTISRDNAKNTVYLQMNSLKPEDTAVYYCAAKDERRSFGMGYWGQGPQVTVSS high polyreactivity
QVQLVESGGGLVQAGGRLRLSCAASGRIFIYYAMGLYRQAPGKERELVAAISWGGGRTYYADSVKGRFTISRDNAKNTVYLQMNSLKPEDTAVYYCAAGVYTGQHEYDYWGQGTQVTVSS low polyreactivity
QVQLVESGGVLVQAGGSLRLSCAASGRTFPTYAMGCSRPAPGKERELVAAITSGGSTYYADTVKGRFTISRDKAKNTVYLQMTSLKPEDTAVYYCAAISTWGTKYDYWGQGTQVTVSS high polyreactivity

# sequence QVQLVESGGGLVQAGGSLRLSCAASGSTFWIYPMGWYRQAPGKERELVAAISNGDSTNYADSVKGRFTISRDNAKNTVYLQMNSLKPEDTAVYYCARQYRIFKTFKYDYWGQGTQVTVSS ; its polyreactivity (PSR sort gate) = low polyreactivity

# sequence QVQLVESGGGLVQAGGSLRLSCAASGRIIYNAMGWYRQAPGKERELVAAITSNGCSTYYADSVKGLFTISRDTAKNTVYLQMNSLKPEDTAVYYCARDVNSVPSEVKYDYWGQGTQVNVSS ; its polyreactivity (PSR sort gate) = low polyreactivity

# sequence QVQLVESGGGLVQAGGSLRLSCASSGFTSWDNDMGWYRQAPGKERELVAAISRGGSTNYADSVKGRFTISRDNAKDTVYLQMNSLKPVDTAVYYCNADFAPWDKQDYPYDYDYWGQGTQVTVSS ; its polyreactivity (PSR sort gate) = low polyreactivity

# sequence QVQLVESAGGLVHAGGSLRLSCADSGSTIGDNAMGWYRQAPGKEREFVASISWSGASTYYADSVKGRFTISRDNAKNTVYLQMNSLKPEDTAVYFCAVYYSYYSHLYHLLFYYWGQATQVTVSS ; its polyreactivity (PSR sort gate) = low polyreactivity

# sequence QVQLVESGGGLVQAGGSLRLSCAASGRTFHYYAMGWYRQAPGKERELVAAISRGGNTYYADSVKGRFTISRDNAKNTVYLQMNSLKPEDTAVYYCAKDNHFEAYRYDYWGQGTQVTVSS ; its polyreactivity (PSR sort gate) = high polyreactivity

====

# Experimental Protocol: yeast display, Sf9 membrane polyspecificity reagent, FACS + sequencing; frameworks hold sequencing errors
Property Label: polyreactivity (PSR sort gate)

Use the examples below as a reference point.
QVQLVESGGGLVQAGGSLRLSCAASGFIFATNAMGWYIQAPGKERELVAAITWSGATTYYADSVKGRFTISRDNAKNTVYLQMNSLKPEDTAVYYCAARRYVYGSPYSTYRYGYWGQGTQVTVSS high polyreactivity
QVQLVESGGGLVQAGGRHRLSCAPSGSIFRFYVMGWYIQAPGKERELVAAISIGGSTNYADSVKGRFTISRDNAKNTVYLQMNSLKPEDSAVYYCAADGPTYWWTTQWYWGDYWGQGTQVTVSS low polyreactivity
QVLLQESGAGLVQAGGSLRLSCAASGTISTDIRMGWYRLAPGKEREFVASIDGCSTTYYADSVKGRFTISRDNAKNSVYLQLNSLKPEDTAMYYCAAREDTEFYLYYWGQGNQVTVSS low polyreactivity
QVQLVESGGGLVQAGGSLRLSCAASGFTFQYYVMGWYRQAPGKERELVAAISWSGGSTYYADSVKGRFSISRDNAKNTVYLQMNSLKPEDTAVYYCAAEYDEFLVRFGVWYWFDYWGQGTQVTVSS high polyreactivity
QVQLVESCGGLDQAGGSLRLSCAASGFMFHLYGMGWYRQAPGKEMEWVAAISSGGRTYYADSVKGRFTISRDNAKNTVYLQMNSLKPEDTAVYYCAVYVAYLYSYYYWGQGTQETVSS low polyreactivity

# sequence QVQLVESGGGLVQAGGSLRLSCAASGSIFRYYAMGWYRRAPGKERELVAAISRRGSSTYYADSVKGRFTISRDNAKNTVYLQMNSLKPEDTAVYYCAAGDFKQYDYWGQGTQVTVSS ; its polyreactivity (PSR sort gate) = high polyreactivity

# sequence QVQLEEAGGGLVQAGGSLRLSCAASARIIARYAMGWYRQAPGKERELVAAITGSGGSTYYADSVKGLFTISRDHANNTVYLQMNCLKPEDTAVYYCAARSVYTYYRLDYWGQGTQVTVSS ; its polyreactivity (PSR sort gate) = high polyreactivity

# sequence QVQLVESGGGLVQAGGSLRLSCAASGSIFLRYAMGWYRQAPGKERELVAAITTGGGSTYYADSVKGRFTISRDNAKNTVYLQMNRLKPEDPAVYYCAKRAQYHWRGRDDYSYYYWGQGTQVTVSS ; its polyreactivity (PSR sort gate) = low polyreactivity

# sequence QVQLVESGGGLVQAGGSLRLSCAASGRIFGYYAMCWYRQAPGKERELVARITWYGGDTYYADSVKGRFTISRDNAKNTVYLQMNSLKPEHTAVYYCGADFVFYRQPDTYFYPHDYWGQGTQVTVTS ; its polyreactivity (PSR sort gate) = low polyreactivity

====

# Experimental Protocol: yeast display, Sf9 membrane polyspecificity reagent, FACS + sequencing; frameworks hold sequencing errors
Property Label: polyreactivity (PSR sort gate)

Use the examples below as a reference point.
QVQLVESGGGLVQAGGRLRLSCAASGFIFVRNAMGWYRQAPGKERELVAAISRGGGRTYYADSVKGRFTISRDNAKNTVYLQINRLKPEDTAVYYCNTQSVGVQFVKDNYWGQGTQVTVSS high polyreactivity
QVQLVESGGGLVQAGGSLRLSCAASGRTFSYYAMGWYRQAAGKERELVAAISRAGRTNYADSVKGRFTISRDNAKNTVYLQMNSLKPEDTAVYYCAATGWLRIDRPYTYTYCYWGQGTQVTVSS high polyreactivity
QVQLVESGGGLVQAGGSLRLSCAASGRIFFTYVMGWYRQAPGKERELVATIRVSGGSTYYADSVKGRFTISRDNAKNTVYLQMNSLKPEDTAVYYCAASGASWSLHYAGDYWGQGTQVTVSS high polyreactivity
QVQLVESGGGLVQAGGSLRLSCAASGYTFSSNAMGWYRQATGKVSELVATNSSGGSTYYADSVKGRFTISRDNAKNTVYLQMYSLKPEDTAVYYCAADDLGWWFYSGGEDYYYWGQGTQVTVSS low polyreactivity
QVQLVESGRGLVQAGGSLRLSCAASGRIFGVYGRGWYRQAPGKERELVAAISWSGATTYYADSVKGRFTISRDNAKNTVYLQMHSLKPEDTAVYYCAADFGWFYDGVAVWFIRILGDYWGQGTQVTVSS low polyreactivity
QVQLVESGGGLVQAGGSLRLSCAASGFTYGVYAMGWYRPAPGKERELVAAISRRGTSTYYADSVKGRFTISRDNAKNTVYLQMNSLKPEDTAVYFCNARRYQVTVDHWGQGTQVTVSS high polyreactivity
QVQLVESGGGLVQAGGSLRLSCAASGNNFRRYAMGWSRQAPGKERELVAAITWRGGNTYYADSVKGRFTISRDIAKNTVYLQRNSLKPEDTAVYYCNRVYRQRLGRDYWGQGTQVTVSS high polyreactivity
QVQLVESGGGLVQAGGSLRLSCAASGSTYWNAMGWYRQAPGKERELVAAITFRGGSTYADSVKGRFTISRDNAKNTVYLQMNSLKPEDTAVYYCAKASSHRWYNVRNRAGYDYWGQGTQVTVSS high polyreactivity
QVQLVESGGGLVQAGGSLRLSCAASGSIFIGYGMGWYRQAPGKERELVAAITSGSITNYADSVKGRFTISRDNAKNTVYLQMNSLKPEDTAVYNCNADVNFIDDDYWGQGTQVTVSA low polyreactivity
QVQLVESGGGLVQAGGSLRLSCAASGSIFPHYAMGWNRQAPGKERELVAAISSGGRTYYADSVKGRFTISRDNAKNTVYLQMNSLKPEDTAVYYCAARRIARKGYGYWGQGTQVTVSS high polyreactivity

# sequence QVQLVDSGGGLVQAGGSLRLSCAASGSTFRRNALGWYRQAPGKERELVAAITRSGGRTYYADSVKGRFTISRDNAKNTVYLQMNSLKPEDTAVYYCAARHAPTRYGYWGQGTQVTVSS ; its polyreactivity (PSR sort gate) = high polyreactivity

Values from the nanobody polyreactivity screen of Harvey et al. (2022)
